experiment: Toxicity in human N87 cells xenografted athymic mouse; type: organism-based, NCI-N87; conditions: in vivo
Attribute Measured: MTD (mg/kg)
Kindly provide the numeric value in mg/kg only, without the unit symbol.

Q: Returns the measured MTD for the input compound. Input: Fc1cccc(Cn2ncc3cc(Nc4ncnn5ccc(CN6CCCNCC6)c45)ccc32)c1
Result: 180

###

assay: Volume of distribution at steady state in BALB/c mouse at 10 mg/kg, iv; assay type: ADME, organism-based; parameters: dose 10 mg/kg, route intravenous; conditions: in vivo, read-out: Vss
Attribute Measured: Vd
Reply with the number, then its unit.

Q: What measured Vd goes with Fc1cccc(Cn2ncc3cc(Nc4ncnn5ccc(CN6CCCNCC6)c45)ccc32)c1 ?
Result: 9.5 L/kg

###

assay: Plasma clearance in BALB/c mouse at 10 mg/kg, iv; type: ADME, organism-based; set-up: dose 10 mg/kg, route intravenous
Attribute Measured: clearance

Q: Value lookup for clearance; key = Fc1cccc(Cn2ncc3cc(Nc4ncnn5ccc(CN6CCCNCC6)c45)ccc32)c1
Result: 39 mL/min/kg

###

molecular target: Receptor tyrosine-protein kinase erbB-2 (Homo sapiens, UniProt P04626)
Sequence (P04626 whole entry): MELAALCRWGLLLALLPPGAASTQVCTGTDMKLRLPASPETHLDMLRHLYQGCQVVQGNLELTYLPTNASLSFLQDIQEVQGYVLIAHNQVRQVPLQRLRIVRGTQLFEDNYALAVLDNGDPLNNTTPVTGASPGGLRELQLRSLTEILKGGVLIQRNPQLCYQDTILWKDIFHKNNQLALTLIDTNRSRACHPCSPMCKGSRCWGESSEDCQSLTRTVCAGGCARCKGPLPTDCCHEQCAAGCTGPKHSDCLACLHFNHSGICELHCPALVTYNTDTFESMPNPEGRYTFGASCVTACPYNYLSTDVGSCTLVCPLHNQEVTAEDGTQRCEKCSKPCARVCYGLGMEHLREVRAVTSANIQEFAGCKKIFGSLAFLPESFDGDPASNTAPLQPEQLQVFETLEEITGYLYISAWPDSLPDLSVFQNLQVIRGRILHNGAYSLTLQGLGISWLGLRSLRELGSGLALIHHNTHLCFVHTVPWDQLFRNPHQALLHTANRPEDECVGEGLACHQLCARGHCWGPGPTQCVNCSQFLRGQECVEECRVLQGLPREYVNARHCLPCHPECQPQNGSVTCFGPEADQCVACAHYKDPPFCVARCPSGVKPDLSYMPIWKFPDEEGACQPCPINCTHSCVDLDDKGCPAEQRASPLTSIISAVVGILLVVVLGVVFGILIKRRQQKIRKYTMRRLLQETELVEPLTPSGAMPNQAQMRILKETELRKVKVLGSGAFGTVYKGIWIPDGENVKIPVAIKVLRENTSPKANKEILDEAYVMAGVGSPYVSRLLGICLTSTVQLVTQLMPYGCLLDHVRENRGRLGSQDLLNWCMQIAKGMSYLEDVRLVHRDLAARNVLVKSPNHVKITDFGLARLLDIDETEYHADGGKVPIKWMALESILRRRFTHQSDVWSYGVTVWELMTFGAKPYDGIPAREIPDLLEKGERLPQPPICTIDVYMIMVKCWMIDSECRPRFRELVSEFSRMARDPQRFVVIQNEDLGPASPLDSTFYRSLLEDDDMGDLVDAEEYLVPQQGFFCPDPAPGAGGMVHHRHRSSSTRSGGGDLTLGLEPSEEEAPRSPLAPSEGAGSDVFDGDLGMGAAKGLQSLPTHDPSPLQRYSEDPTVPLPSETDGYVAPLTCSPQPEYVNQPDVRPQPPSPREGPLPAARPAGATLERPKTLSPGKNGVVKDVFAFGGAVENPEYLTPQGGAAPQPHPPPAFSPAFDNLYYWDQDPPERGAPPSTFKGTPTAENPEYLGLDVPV
Attribute Measured: pIC50
The quantity pIC50 is defined as the negative base-10 logarithm of the molar concentration.

Completed entries (count: 4):
COC1CNCCN(Cc2ccn3ncnc(Nc4ccc5c(cnn5Cc5cccc(F)c5)c4)c23)C1 (configuration not stated): 6.77
O[C@H]1CNCCN(Cc2ccn3ncnc(Nc4ccc5c(cnn5Cc5cccc(F)c5)c4)c23)C1: 7.80
O=C1CN(Cc2ccn3ncnc(Nc4ccc5c(cnn5Cc5cccc(F)c5)c4)c23)CCN1: 6.70
OCCNCc1ccn2ncnc(Nc3ccc4c(cnn4Cc4cccc(F)c4)c3)c12: 7.33

Q: Which measured pIC50 value corresponds to O=C(O)C1CCN(Cc2ccn3ncnc(Nc4ccc5c(cnn5Cc5cccc(F)c5)c4)c23)CC1 ?
Result: 6.96

Q: Next up: CC1CNCCN(Cc2ccn3ncnc(Nc4ccc5c(cnn5Cc5cccc(F)c5)c4)c23)C1 (configuration not stated)
Result: 7.13

Q: Next entry: Fc1cccc(Cn2ncc3cc(Nc4ncnn5ccc(CN6CCCNCC6)c45)ccc32)c1
Result: 7.57

###

assay: Oral bioavailability in BALB/c mouse at 90 mg/kg, po; assay type: ADME, organism-based; details: in vivo
Attribute Measured: bioavailability (%)
Write the number in % without appending the unit.

Q: Data request, read-out bioavailability, for Fc1cccc(Cn2ncc3cc(Nc4ncnn5ccc(CN6CCCNCC6)c45)ccc32)c1
Result: 77

###

experiment: AUC in BALB/c mouse at 90 mg/kg, po; type: ADME, organism-based; set-up: dose 90 mg/kg, route oral; conditions: plasma
Attribute Measured: AUC (µM·h)
Express it in µM·h; write the number only.

Q: // returns reported AUC for input Fc1cccc(Cn2ncc3cc(Nc4ncnn5ccc(CN6CCCNCC6)c45)ccc32)c1
Result: 48.9

###

test: Mean residence time in BALB/c mouse at 10 mg/kg, iv; format: ADME, organism-based; design: dose 10 mg/kg, route intravenous; conditions: in vivo
Attribute Measured: MRT

Q: Dear colleague, I am looking for the recorded MRT of the following compound: Fc1cccc(Cn2ncc3cc(Nc4ncnn5ccc(CN6CCCNCC6)c45)ccc32)c1
Result: 4 h

###

Below, each entry is listed with its recorded concentration at 4 h.
assay: Drug level in BALB/c mouse plasma at 50 mg/kg, po after 4 hrs; assay type: ADME, organism-based; parameters: dose 50 mg/kg, route oral
Mention the unit after the number when you answer.

Before answering, review these 2 worked examples.
O=C(O)C1CCN(Cc2ccn3ncnc(Nc4ccc5c(cnn5Cc5cccc(F)c5)c4)c23)CC1: 600 nM
CN1CCCN(Cc2ccn3ncnc(Nc4ccc5c(cnn5Cc5cccc(F)c5)c4)c23)CC1: 93 nM

--- query ---
Q: Dear colleague, I am looking for the recorded concentration at 4 h of the following compound: CC(=O)N1CCN(Cc2ccn3ncnc(Nc4ccc5c(cnn5Cc5cccc(F)c5)c4)c23)CC1
Result: 4100 nM
